src = ChEMBL document CHEMBL1128265

Molecular target: Human immunodeficiency virus type 1 integrase (Human immunodeficiency virus 1, UniProt Q7ZJM1)
Sequence (Q7ZJM1 whole entry): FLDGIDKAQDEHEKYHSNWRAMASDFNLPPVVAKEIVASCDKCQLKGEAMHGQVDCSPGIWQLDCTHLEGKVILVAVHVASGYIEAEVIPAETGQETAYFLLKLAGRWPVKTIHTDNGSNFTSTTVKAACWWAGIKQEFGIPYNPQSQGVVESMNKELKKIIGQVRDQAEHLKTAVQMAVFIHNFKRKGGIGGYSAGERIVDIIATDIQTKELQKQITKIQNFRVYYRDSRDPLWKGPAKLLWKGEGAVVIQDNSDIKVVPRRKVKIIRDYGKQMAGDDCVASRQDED
Record form. Attribute: pIC50. Fill in for each entry.
Answers are plain numbers, as −log10 of the molar value.

Reference set (2 entries):
molecule=C[C@@H]1O[C@@H](O)[C@H](O)[C@H](O)[C@H]1Oc1c(-c2cc(O)c(O)c(O)c2)oc2cc(O)cc(O)c2c1=O observed_result=4.40
molecule=O=c1c(O)c(-c2ccc(O)cc2O)oc2cc(O)cc(O)c12 observed_result=4.12

Below are 7 molecules. Give each one its pIC50.
1. O=c1c(O)c(-c2ccc(O)c(O)c2)oc2cc(O)c(O)c(O)c12
2. COc1c(O)cc2oc(-c3ccc(O)c(O)c3)cc(=O)c2c1O
3. O=c1c(O)c(-c2ccc(O)c(O)c2)oc2c(O[C@@H]3O[C@@H](O)[C@@H](O)[C@H](O)[C@H]3O)c(O)cc(O)c12
4. CC1OC(O)C(O)C(O)C1Oc1c(-c2ccc(O)c(O)c2)oc2cc(O)cc(O)c2c1=O (centres undefined)
5. O=c1c(O)c(-c2cc(O)c(O)c(O)c2)oc2cc(O)ccc12
6. COc1cc(O)c2c(=O)c(O)c(-c3ccc(O)c(O)c3)oc2c1
7. O=c1c(O)c(-c2ccc(O)cc2)oc2cc(O)cc(O)c12

Return:
1. 6.10
2. 4.03
3. 4.16
4. 4.22
5. 5.23
6. 4.21
7. 4.01

* * *

Molecular target: Human immunodeficiency virus type 1 integrase (Human immunodeficiency virus 1, UniProt Q7ZJM1)
MEASURE NAME: IC50 (µM)
Answers are plain numbers, in µM.

Reference set (2 entries):
compound=O=c1c(O)c(-c2ccc(O)c(O)c2)oc2c(O[C@@H]3O[C@@H](O)[C@@H](O)[C@H](O)[C@H]3O)c(O)cc(O)c12 observed_result=22.5
compound="CC1OC(O)C(O)C(O)C1Oc1c(-c2ccc(O)c(O)c2)oc2cc(O)cc(O)c2c1=O (stereo not drawn)" observed_result=38.5

Enquiry: Entry O=c1c(O)c(-c2ccc(O)cc2)oc2cc(O)cc(O)c12 [KAEMPFEROL] : reported IC50 = ?
Return: 64.7

* * *

Record form. Attribute: pIC50. Fill in for each entry.
Target: Human immunodeficiency virus type 1 integrase (Human immunodeficiency virus 1)
One number for each entry, as −log10 of the molar value.

Reference set (2 entries):
compound=O=c1c(O)c(-c2ccc(O)c(O)c2)oc2cc(O)ccc12 observed_result=4.55
compound="O=c1c(OC2COC(O)C(O)C2O)c(-c2ccc(O)c(O)c2)oc2cc(O)cc(O)c12 (stereo not drawn)" observed_result=4.18

Could you now consider this next compound?
Enquiry: Entry O=c1cc(-c2ccc(O)c(O)c2)oc2cc(O)cc(O)c12 : reported pIC50 = ?
Return: 4.48

* * *

Biological target: Human immunodeficiency virus type 1 integrase (Human immunodeficiency virus 1)
# label = bin(measured IC50), where bins are class A (below 8 µM), class B (8 µM to below 30 µM), class C (30 µM or more)

molecule=COc1c(O)cc2oc(-c3ccc(O)c(O)c3)cc(=O)c2c1O qualitative_label="class C"

Enquiry: Each molecule maps to one class by IC50. Which class for O=c1c(O)c(-c2ccc(O)c(O)c2)oc2cc(O)ccc12 ?
Return: class B

Enquiry: Further, for O=c1c(O)c(-c2ccc(O)c(O)c2)oc2cc(O)c(O)c(O)c12 ?
Return: class A

Enquiry: Further, for O=c1cc(-c2ccc(O)c(O)c2)oc2cc(O)cc(O)c12 ?
Return: class B

Enquiry: Further, for C[C@@H]1O[C@@H](O)[C@H](O)[C@H](O)[C@H]1Oc1c(-c2cc(O)c(O)c(O)c2)oc2cc(O)cc(O)c2c1=O ?
Return: class B

Enquiry: Further, for O=c1c(OC2COC(O)C(O)C2O)c(-c2ccc(O)c(O)c2)oc2cc(O)cc(O)c12 (centres undefined) ?
Return: class B

Enquiry: Further, for O=c1c(O)c(-c2cc(O)c(O)c(O)c2)oc2cc(O)ccc12 ?
Return: class A

Enquiry: Further, for COc1cc(O)c2c(=O)c(O)c(-c3ccc(O)c(O)c3)oc2c1 ?
Return: class B

Enquiry: Further, for O=c1c(O)c(-c2ccc(O)cc2O)oc2cc(O)cc(O)c12 ?
Return: class C
